Listed below: IC50 values for each entry.
# system: human Chk2 kinase (Homo sapiens, UniProt O96017)
# Sequence (O96017 whole entry): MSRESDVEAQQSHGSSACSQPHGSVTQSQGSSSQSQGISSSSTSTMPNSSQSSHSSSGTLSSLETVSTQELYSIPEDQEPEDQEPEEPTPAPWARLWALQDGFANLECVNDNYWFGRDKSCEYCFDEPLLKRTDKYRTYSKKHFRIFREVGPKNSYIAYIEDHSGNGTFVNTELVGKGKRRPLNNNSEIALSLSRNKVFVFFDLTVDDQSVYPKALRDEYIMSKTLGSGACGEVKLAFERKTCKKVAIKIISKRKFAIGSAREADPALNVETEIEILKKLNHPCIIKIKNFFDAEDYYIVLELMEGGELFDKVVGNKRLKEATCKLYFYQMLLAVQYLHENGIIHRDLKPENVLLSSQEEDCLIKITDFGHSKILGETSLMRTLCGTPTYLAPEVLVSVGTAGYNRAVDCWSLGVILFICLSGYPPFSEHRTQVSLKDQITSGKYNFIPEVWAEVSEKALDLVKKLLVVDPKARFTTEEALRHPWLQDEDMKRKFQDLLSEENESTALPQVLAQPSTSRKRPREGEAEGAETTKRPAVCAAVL
# assay info: biochemical

compound: COc1cc(N2C[C@H]3C[C@@H]2CN3C)ccc1-n1cnc(Nc2cnc(C#N)cn2)c1
measured parameter: IC50
value measured: 10 to 100 µM
//
compound: COc1cc(OC2CN(C(C)(C)C)C2)ccc1-n1cnc(Nc2cnc(C#N)cn2)c1
measured parameter: IC50
value measured: 10 to 100 µM
//
compound: CC1CN(C2CCN(c3ccc(-n4cnc(Nc5cnc(C#N)cn5)c4)cc3)C2)C1 (single isomer, unassigned) [Example 125]
measured parameter: IC50
value measured: 1 to 10 µM
//
compound: N#Cc1cnc(Nc2cn(-c3ccc(N4CC(F)(CN)C4)cc3)cn2)cn1
measured parameter: IC50
value measured: 1 to 10 µM

The record that follows has no IC50 shown yet.
Exercise: For the compound N#Cc1cnc(Nc2cn(-c3ccc(N4CC[C@@H](N5CCC5)C4)cn3)cn2)cn1 , what IC50 is on record?
Solution: 1 to 10 µM
